experiment: Solubility test in water and pH 2.0 buffer (HPLC); type: physicochemical; conditions: pH 2.0 buffer, acidic conditions
REPORTED ENDPOINT: solubility in pH 2.0 buffer compared with Preparation Example 1 (in words)

>>> df
                                   compound   observed_value
0  COc1cc2c(Nc3ccc(Br)cc3F)ncnc2cc1OCCCCN(C)C.O=C(O)/C=C\C(=O)O  slightly better
1  COc1cc2c(Nc3ccc(Br)cc3F)ncnc2cc1OCCCCN(C)C [Example 1]  slightly better
2  COc1cc2c(Nc3ccc(Br)cc3F)ncnc2cc1OCCCCN(C)C [Example 3]   slightly lower
3  COc1cc2c(Nc3ccc(Br)cc3F)ncnc2cc1OCCCCN(C)C [Example 2]   slightly lower

The values you see were collected from patent US12637434B2.
